Taken from patent US8354569B2.

Test system: LPCAT
Measurement protocol: LPCAT acyl-CoA substrate specificity, Mortierella microsomal membranes
Format: biochemical, Mortierella alpina
Condition label: Mortierella LPCAT; 20 nmol acyl-CoA, sn-1-palmitolysophosphatidylcholine, DTNB assay
Collected Percentage incorporation in comparison with the incorporation of oleic acid values appear next to each entry.
Answer format: numeric, % implied, no suffix.

Example cases with answers are listed next.
Chemical smiles	Reading
CCCCC/C=C\C/C=C\C/C=C\C/C=C\CCCC(=O)SCCNC(=O)CCNC(=O)[C@H](O)C(C)(C)COP(=O)(O)OP(=O)(O)OC[C@H]1O[C@@H](n2cnc3c(N)ncnc32)[C@H](O)[C@@H]1OP(=O)(O)O	90
CCCCCCCC/C=C\CCCCCCCC(=O)SCCNC(=O)CCNC(=O)[C@H](O)C(C)(C)COP(=O)(O)OP(=O)(O)OC[C@H]1O[C@@H](n2cnc3c(N)ncnc32)[C@H](O)[C@@H]1OP(=O)(O)O	100
CCCCCCCCCCCCCCCC(=O)SCCNC(=O)CCNC(=O)[C@H](O)C(C)(C)COP(=O)(O)OP(=O)(O)OC[C@H]1O[C@@H](n2cnc3c(N)ncnc32)[C@H](O)[C@@H]1OP(=O)(O)O	25

Recorded Percentage incorporation in comparison with the incorporation of oleic acid (compound CCCCCC/C=C\CCCCCCCC(=O)SCCNC(=O)CCNC(=O)[C@H](O)C(C)(C)COP(=O)(O)OP(=O)(O)OC[C@H]1O[C@@H](n2cnc3c(N)ncnc32)[C@H](O)[C@@H]1OP(=O)(O)O ): 60

The value of Percentage incorporation in comparison with the incorporation of oleic acid measured for the compound CCCCCCCCCCCCCCCCCC(=O)SCCNC(=O)CCNC(=O)[C@H](O)C(C)(C)COP(=O)(O)OP(=O)(O)OC[C@H]1O[C@@H](n2cnc3c(N)ncnc32)[C@H](O)[C@@H]1OP(=O)(O)O turned out to be 10

CCCCC/C=C\C/C=C\C/C=C\CCCCCCC(=O)SCCNC(=O)CCNC(=O)[C@H](O)C(C)(C)COP(=O)(O)OP(=O)(O)OC[C@H]1O[C@@H](n2cnc3c(N)ncnc32)[C@H](O)[C@@H]1OP(=O)(O)O yielded Percentage incorporation in comparison with the incorporation of oleic acid of 85

Kindly note the recorded Percentage incorporation in comparison with the incorporation of oleic acid for CCCCC/C=C\C/C=C\CCCCCCCC(=O)SCCNC(=O)CCNC(=O)[C@H](O)C(C)(C)COP(=O)(O)OP(=O)(O)OC[C@H]1O[C@@H](n2cnc3c(N)ncnc32)[C@H](O)[C@@H]1OP(=O)(O)O , which is 40

For this compound ( CCCCCCCCCCCCCC(=O)SCCNC(=O)CCNC(=O)[C@H](O)C(C)(C)COP(=O)(O)OP(=O)(O)OC[C@H]1O[C@@H](n2cnc3c(N)ncnc32)[C@H](O)[C@@H]1OP(=O)(O)O ), measured Percentage incorporation in comparison with the incorporation of oleic acid is 0
